molecular target: human CCL2 (MCP1) - wild type (wt) (human, UniProt P13500 24-99); assay: cell-based or functional assay
readout: THP1 chemotaxis [fold change compared to IgG control] (fold)
The reply should be a number in fold, with the unit left off.

Please review the entries below; each comes with its answer.
* murine 11K2 (antibody, V domains shown, also called 11K2m; X-0048) VH: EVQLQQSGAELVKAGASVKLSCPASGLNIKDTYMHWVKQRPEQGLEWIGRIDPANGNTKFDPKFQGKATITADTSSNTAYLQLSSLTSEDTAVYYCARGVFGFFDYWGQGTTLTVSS VL: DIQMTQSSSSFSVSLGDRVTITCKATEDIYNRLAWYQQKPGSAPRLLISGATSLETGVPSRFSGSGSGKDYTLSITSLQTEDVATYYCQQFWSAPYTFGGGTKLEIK | 6.9
* ABN912 (antibody, IgG1, V domains shown, IgG1 with kappa light chain; also called AB912; CCL2-0003) VH: EVQLVQSGGGLVQPGGSLRLSCAASGFTFSHYWMSWVRQAPGKGLEWLANIEQDGSEKYYVDSVKGRFTISRDNAKNSLYLQMNSLRAEDTAVYFCARDLEGLHGDGYFDLWGRGTLVTVSS VL: AIQLTQSPSSLSASVGDRVILTCRASQGVSSALAWYQQKPGKAPKLLIYDASSLESGVPSRFSGSGSGPDFTLTISSLQPEDFATYFCQQFNSYPLTFGGGTKVEIK | 6.5

Switching to the query record.
Input: Report THP1 chemotaxis [fold change compared to IgG control], nothing else, for this binder: 2F6 (antibody, IgG1, V domains shown, also called CCL2-0014) VH: QSLEESGGGLVQPEGSLTLTCTASGFSFNNNYYMCWVRQAPGKGLEWIGCISTDDSNTHYASWAQGRFTISKASSTALTLQVAGLTVADMATYFCARDAHFTSYGYGFDLWGPGTLVTVSS VL: DIVMTQTPASVSAAVGGTVSINCRASEDIENLVAWYQQKPGQPPKLLIYQASKLASGVPSRFKGSGSGAEFTLTIGDLESADAATYYCQGDYGSGWIMYSFGGGTDLVVK
Output: 6.7
